Kindly supply the reported z-score values for the records listed here.
measurement notes: Plasmodium falciparum growth inhibition, primary screen, strain 3D7, DAPI fluorescence, 100 nL (AID 1184);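 note: parasites grown inside human red blood cells in medium with human serum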
study conditions: P. falciparum 3D7 growth, 3 d, higher = more signal
Give bare numbers.

Consider the reported z-score for these compounds:
{"smiles data": "CC(=O)NCCCC[C@@H]1NC(=O)[C@H]2C[C@@H](C(=O)NCCCCCN)[C@@H](c3ccc(O)cc3)N2C1=O", "reported result": 0.0481}
{"smiles data": "C=CCOC(=O)[C@H]1[C@@H]2C(=O)O[C@@H](c3ccccc3)[C@@H](c3ccccc3)N2[C@@H](c2ccc(OCCOC(=O)[C@H]3C[C@H]4C(=O)NCC(=O)N4[C@H]3c3cccc(OCCO)c3)cc2)[C@]12C(=O)Nc1ccc(I)cc12", "reported result": -1.8}
{"smiles data": "C=CCNC(=O)[C@H]1[C@@H]2C(=O)O[C@@H](c3ccccc3)[C@@H](c3ccccc3)N2[C@@H](c2ccc(OCCO)cc2)[C@]12C(=O)N(C(=O)OCCOC)c1ccc(C#CCC(C(=O)OC)C(=O)OC)cc12", "reported result": -1.82}
{"smiles data": "Cc1ccc(S[C@]2(C(=O)NCc3ccccc3)CC(=O)N(Cc3ccccc3Cl)[C@@H]2c2ccc(CO)cc2)cc1", "reported result": -1.2}
{"smiles data": "COc1ccc([Si](C)(C)[C@H]2[C@H](CC(=O)N3CCC[C@H]3CO)O[C@@]3(C(=O)N(C)c4ccccc43)[C@@H]2C)cc1", "reported result": 1.07}

Query :: Identify measured z-score corresponding to COC(=O)[C@@]1(Cc2ccccc2)[C@H]2c3cc(C(=O)N(C)C)n(Cc4nc5ccccc5[nH]4)c3C[C@H]2CN1C(=O)c1ccccc1
Result :: -0.542

====

tested on: Dihydroorotate dehydrogenase (quinone), mitochondrial (Plasmodium falciparum (isolate 3D7)) (UniProt Q08210)
Sequence (Q08210 whole entry, looked up): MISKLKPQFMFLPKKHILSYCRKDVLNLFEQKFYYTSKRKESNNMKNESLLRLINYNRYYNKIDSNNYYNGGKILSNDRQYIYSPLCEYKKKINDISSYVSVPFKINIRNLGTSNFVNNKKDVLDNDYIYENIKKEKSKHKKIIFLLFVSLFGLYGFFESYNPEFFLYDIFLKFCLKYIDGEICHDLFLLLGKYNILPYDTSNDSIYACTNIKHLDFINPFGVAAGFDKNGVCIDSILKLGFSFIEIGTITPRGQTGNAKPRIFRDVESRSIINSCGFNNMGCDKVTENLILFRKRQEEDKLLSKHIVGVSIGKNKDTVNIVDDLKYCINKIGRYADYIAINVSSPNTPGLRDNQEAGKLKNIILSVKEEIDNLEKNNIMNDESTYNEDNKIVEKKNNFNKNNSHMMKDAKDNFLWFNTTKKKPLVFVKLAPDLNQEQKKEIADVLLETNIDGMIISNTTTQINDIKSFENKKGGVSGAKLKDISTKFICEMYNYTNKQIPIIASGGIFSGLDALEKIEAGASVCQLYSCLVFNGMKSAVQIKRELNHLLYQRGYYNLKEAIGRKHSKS
measurement notes: PfDHODH enzyme inhibitors, primary screen, biochemical, C-terminal His tag, absorbance 600 nm (AID 1175);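 note: recombinant parasite enzyme with a five histidine tag at its C terminus; test concentration not given here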
study conditions: DCIP absorbance 600 nm, higher = more signal, called active from +8 up or from −8 down
Consider the following compounds; for each one, report its composite z-score.
Answers are plain numbers.

Worked set:
{"smiles data": "C=C(C(=O)CC[C@@H](OC(=O)c1ccccc1-c1ccccc1C(=O)O)c1ccc(CO)o1)C(C)C", "composite z-score": -2.18}
{"smiles data": "CCOC(=O)C1=C[C@@H](C(C)(C)C)N(S(=O)(=O)c2ccc(C)cc2)[C@H]1c1ccc(OC)cc1", "composite z-score": -0.0972}
{"smiles data": "COCCOC(=O)N1C(=O)[C@@]2(c3cc(C#CCCO)ccc31)[C@H](C(=O)N1CCN(c3ncccn3)CC1)[C@H]1C(=O)O[C@H](c3ccccc3)[C@H](c3ccccc3)N1[C@@H]2c1ccc(OCCO)cc1", "composite z-score": -0.486}

I need composite z-score for every entry listed below, if you could help.
1. C=C(COC)C(=O)CC[C@@H](OC(=O)c1ccccc1-c1ccccc1C(=O)O)c1ccccc1OCCO
2. CCOC(=O)C[C@H]1[C@H](OC(=O)c2ccc(-c3ccccc3)cc2)[C@@H](NC(=O)C2CCCCC2)c2cc(OCCCO)ccc2N1C(=O)Cc1ccc(OC)cc1
3. COC(=O)C(CC#Cc1ccc2c(c1)[C@]1(C(=O)N2)[C@H](C(=O)NC[C@H](O)c2ccccc2)[C@H]2C(=O)O[C@H](c3ccccc3)[C@H](c3ccccc3)N2[C@@H]1c1ccc(O)cc1)C(=O)OC
4. COC(=O)[C@@]1(Cc2ccccc2)[C@H]2c3cc(C(=O)N(C)C)n(Cc4nc5ccccc5[nH]4)c3C[C@H]2CN1C(=O)c1ccccc1
5. COCCCNC(=O)[C@@]1(Cc2ccccc2I)c2ccccc2C(=O)N(C2CCCCC2)[C@H]1c1ccc(CO)cc1
6. CC[C@@H](O[Si](C#C[Si](C(C)C)(C(C)C)C(C)C)(C(C)C)C(C)C)c1cn(Cc2cccc(Cl)c2)nn1
7. CCCC[C@@H](O)C1=C(C)Cn2c(=O)n(-c3ccccc3)c(=O)n2[C@H]1CO

Result ::
1: -1.57; 2: -0.175; 3: -5.06; 4: -0.862; 5: 0.154; 6: 0.625; 7: -1.06

Provide composite z-score for all items below, preserving their order.
1. O=C1O[C@H](c2ccccc2)[C@H](c2ccccc2)N2[C@H]1[C@@H](C(=O)Nc1nc3ccccc3s1)[C@]1(C(=O)Nc3ccccc31)[C@H]2c1ccccc1OCCO
2. COc1ccc(C(=O)Nc2cccc(CN3C(=O)[C@]4(O[C@H](CC(=O)N(CCO)Cc5ccccc5)[C@@H]([Si](C)(C)c5ccc(OC)cc5)[C@@H]4C)c4ccccc43)c2)cc1

Result ::
1: 0.386; 2: -1.92

====

tested on: Alpha-bungarotoxin (Bungarus multicinctus) (UniProt P60615)
Sequence (P60615 whole entry, looked up): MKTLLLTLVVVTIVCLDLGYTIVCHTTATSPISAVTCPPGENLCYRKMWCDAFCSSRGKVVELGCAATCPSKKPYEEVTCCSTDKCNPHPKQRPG
measurement notes: alpha-bungarotoxin binders on microarray, profiling panel, artefact control for SMM control protein annotation, biochemical, small-molecule microarray, Alexa647 label, 635/667 nm fluorescence (AID 1117)
study conditions: alpha-BTX-A647 binding fluorescence, higher = more signal
Record form. Attribute: composite z-score. Fill in for each entry.
Answers are plain numbers.

Before answering, review these 3 worked examples.
{"compound": "CCOC(=O)C1=CCC(c2ccncc2)N(S(=O)(=O)c2ccc(C)cc2)C1 (centres undefined)", "composite z-score": 0.842}
{"compound": "[N-]=[N+]=NCc1ccccc1[C@H]1OC(c2ccc(OCCCO)cc2)=N[C@@]1(CCS(=O)(=O)c1ccccc1)C(=O)NCCN1CCOCC1", "composite z-score": 1.3}
{"compound": "COC(=O)c1ccc(OC)c(/C=C\\CC(OC(=O)c2ccncc2)c2ccccc2)c1 (centres undefined)", "composite z-score": 2.12}

Let's switch to this compound now.
Query :: Note down composite z-score recorded for COC(=O)Cn1c(C(=O)N(C)C)cc2c1C[C@H]1CN(C(=O)c3ccccc3)[C@@](Cc3ccccc3)(C(=O)OC)[C@@H]21
Result :: 0.195

====

measurement notes: binders from COS7 lysate, DM2A8 probe, primary screen, torsin A project, cell lysate, small-molecule microarray, fluorescence 635/667 (AID 1065)
study conditions: higher = more signal, COS7 lysate expressing mutant human TOR1A
reported endpoint: composite z-score

For orientation, consider the following solved cases.
{"smiles data": "O=C1O[C@@H](c2ccccc2)[C@@H](c2ccccc2)N2[C@@H](c3ccccc3OCCO)[C@]3(C(=O)Nc4ccc(C#CC5(O)CCCCCC5)cc43)[C@@H](C(=O)N3CCCCCCC3)[C@H]12", "reported result": 2.44}
{"smiles data": "COCCOC(=O)N1C(=O)[C@@]2(c3cc(C#CC4=CCCCC4)ccc31)[C@H](c1ccc(O)cc1)N1[C@H](c3ccccc3)[C@H](c3ccccc3)OC(=O)[C@H]1[C@@H]2C(=O)N1CCc2cc(OC)c(OC)cc2C1", "reported result": -0.252}

Moving on to another molecule below.
Query :: Query composite z-score for C[N+](C)(C)CCCC[C@@H]1NC(=O)[C@H]2C[C@@H](C(=O)O)[C@@H](c3ccc(O)cc3)N2C1=O
Result :: 0.211

====

System: Plasmodium falciparum Sir2 (PF13_0152, Sir2A)
measurement notes: pfSir2 binders on small-molecule microarrays, primary screen, biochemical, small-molecule microarray, 635 nm fluorescence (AID 1098);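 note: score merges spot fluorescence intensity with its signal-to-noise ratio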
study conditions: small-molecule microarray binding, fluorescence 635 nm; higher = more signal
Label 1 (yes) when composite z-score is at or above 1; anything below gets 0 (no).

Some solved cases for reference:
{"smiles data": "COc1ccc([Si](C)(C)[C@H]2[C@H](CC(=O)N(CCO)Cc3ccccc3)O[C@@]3(C(=O)N(Cc4ccc(N5C(=O)c6cccc7cccc5c67)cc4)c4ccccc43)[C@@H]2C)cc1", "tested on": "Plasmodium falciparum Sir2 (PF13_0152, Sir2A)", "class name": "0 (no)"}
{"smiles data": "[N-]=[N+]=NCc1ccccc1[C@H]1OC(c2ccc(OCCCO)cc2)=N[C@@]1(CCS(=O)(=O)c1ccccc1)C(=O)NCCN1CCOCC1", "tested on": "Plasmodium falciparum Sir2 (PF13_0152, Sir2A)", "class name": "1 (yes)"}
{"smiles data": "C[C@]1(C(=O)NC2CC2)c2ccccc2C(=O)N(Cc2cc(F)cc(C(F)(F)F)c2)[C@H]1c1ccc(CO)cc1", "tested on": "Plasmodium falciparum Sir2 (PF13_0152, Sir2A)", "class name": "0 (no)"}
{"smiles data": "C=CCNC(=O)[C@@H]1[C@H]2C(=O)O[C@H](c3ccccc3)[C@H](c3ccccc3)N2[C@H](c2ccc(O)cc2)[C@@]12C(=O)Nc1ccc(C#CC3=CCCCC3)cc12", "tested on": "Plasmodium falciparum Sir2 (PF13_0152, Sir2A)", "class name": "1 (yes)"}
{"smiles data": "CN(C)C(=O)[C@]1(CCS(=O)(=O)c2ccccc2)N=C(c2ccc(OCCCO)cc2)O[C@@H]1c1ccccc1CN=[N+]=[N-]", "tested on": "Plasmodium falciparum Sir2 (PF13_0152, Sir2A)", "class name": "1 (yes)"}

Query :: Assess whether reported composite z-score for COC(=O)Cn1c(C(=O)N(C)C)cc2c1C[C@H]1CN(C(=O)c3ccccc3)[C@@](Cc3ccccc3)(C(=O)OC)[C@@H]21 sits at 1 or higher.
Result :: 0 (no)

Query :: # bool: composite z-score of COc1ccc([Si](C)(C)[C@H]2[C@H](CC(=O)N(CCO)Cc3ccccc3)O[C@@]3(C(=O)N(c4ccccc4)c4ccccc43)[C@@H]2C)cc1 >= 1
Result :: 0 (no)
